In this section we review reported mortality at 200 ppm values for a set of compounds.
System: Sweetpotato Whitefly-crawler (Bemisia tabaci) (WF) (BEMITA)
Test: Sweetpotato whitefly-crawler (WF) foliar spray assay on cotton plants
Type: in vivo
Conditions: 216 h, 200 ppm foliar spray on cotton plants, graded after 9 days, same protocol, comparative compounds (TABLE 3), read-out: WF % Control (or Mortality) rating

Examples with their reported mortality at 200 ppm follow.
>>> observedresult("CSCN1CCc2nn(-c3ccncc3)cc2C1=O [Compound CE2, reference compound]")
"0 to 80%"
>>> observedresult("CSCN1CCc2nn(-c3ccccn3)cc2C1=O [Compound CE3, reference compound]")
"< 0%"
>>> observedresult("O=C1c2cn(-c3ccccn3)nc2CCN1c1ccc(C(F)(F)F)cn1 [CE6, reference compound]")
"< 0%"
>>> observedresult("O=C1c2cn(-c3ccccn3)nc2CCN1c1cccc(C(F)(F)F)n1 [Compound CE5, reference compound]")
"< 0%"
>>> observedresult("O=C1c2cn(-c3ccccn3)nc2CCN1c1cccc(OC(F)(F)F)c1 [Compound CE4, reference compound]")
"< 0%"

Task: Which measured mortality at 200 ppm value corresponds to O=C1NCCc2nn(-c3ccccn3)cc21 [Compound CE1, reference compound] ?
Result: 0 to 80%

Task: Give its mortality at 200 ppm value. Item: O=C1c2cn(-c3ccccn3)nc2CCN1c1cc(C(F)(F)F)ccn1 [Compound CE7, reference compound]
Result: < 0%

FYI, the data here is from patent US9504251B2.
